B1: Ankyrin-3, residues 4094 to 4171; numbered along this chain, Q12955 (parent)
chain: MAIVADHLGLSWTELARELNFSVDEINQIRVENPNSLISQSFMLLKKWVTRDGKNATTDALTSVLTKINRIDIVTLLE

Variants of: B1
Assay: abundance fitness (aPCA) (normalised: wild type 0, dead -1); higher = more abundant; growth selection in yeast, the domain comes from the species named
Details: Homo sapiens
This section presents variants with their documented abundance fitness values.
Please respond with just the number, no unit label.

// solved cases for abundance fitness follow
mutation name | abundance fitness
N20F | -0.196
A60N | 0.219
V23N | 0.097
L37F | -0.231
G53A | -0.457
N69Y | -0.699
I73P | -0.858
S36D | 0.155

Name the recorded abundance fitness for Q28G . -0.264
